System tested: Vasoactive intestinal polypeptide receptor 1 (Homo sapiens)
Sequence (P32241 whole entry): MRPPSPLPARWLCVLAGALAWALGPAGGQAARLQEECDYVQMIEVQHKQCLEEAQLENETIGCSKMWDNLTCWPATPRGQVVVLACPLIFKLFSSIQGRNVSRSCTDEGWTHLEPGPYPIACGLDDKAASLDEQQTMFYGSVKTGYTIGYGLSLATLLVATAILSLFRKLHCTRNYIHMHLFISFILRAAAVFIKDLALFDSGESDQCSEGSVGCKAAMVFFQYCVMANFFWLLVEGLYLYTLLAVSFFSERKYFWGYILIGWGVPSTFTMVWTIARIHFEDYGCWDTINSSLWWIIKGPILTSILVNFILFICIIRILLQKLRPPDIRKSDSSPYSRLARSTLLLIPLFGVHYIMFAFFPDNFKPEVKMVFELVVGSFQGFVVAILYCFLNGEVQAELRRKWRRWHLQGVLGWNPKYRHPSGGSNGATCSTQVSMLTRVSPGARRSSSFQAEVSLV
Protocol details: Displacement of [125I]VIP from human recombinant VPAC1 receptor expressed in CHO cells measured after 60 mins by scintillation counting method
Assay type: cell-based
Outcome measure: pIC50
Answer as the number alone; pIC50 is minus log10 of concentration in mol/L.

Form field pIC50, entry H-HSDAVFTDNYTRLRKQLAVKKYLNSILN-NH2 : 9.96

---

Protocol details: Displacement of [3H]TCP from rat cerebral cortex phencyclidine receptor measured after 120 mins by scintillation counting method
Outcome measure: pIC50
// field semantics: pIC50 = negative decimal log of concentration (mol/L)

The reported pIC50 of the compound C[C@]12N[C@H](Cc3ccccc31)c1ccccc12 was 8.34
